# Test system: DMS-114
# Assay procedure: NCI tumour cell line growth inhibition, 48 h
Calls of active or inactive are those of the source. Cut-off read from the data, not from the text of the source: active = GI50 up to about 1.1 µM and inactive = higher.
Recorded GI50 for the following compounds

In the examples that follow, each entry is paired with its recorded GI50.
O=C(c1ccccc1)C(C(=O)c1ccccc1)C1(O)C(=O)c2ccccc2C1=O :: > 10 µM (inactive)
CN(C)CCNC(=O)c1cccc2c1nc(-c1ccccn1)c1ccccc12 :: 18.3 µM (inactive)
O=C(Nc1ccc(Br)cc1)C(=O)C(C(=O)c1ccccc1F)C1OC(=O)c2ccccc21 (stereo not given) :: 14 µM (inactive)
Cc1cc([N+](=O)[O-])c(S(=O)(=O)c2ccccc2)c([N+](=O)[O-])c1 :: 3.14 µM (inactive)

Q) # returns recorded GI50 (system: DMS-114) for CN(C)CCNC(=O)c1cc(Cl)cc2ccc(-c3ccccc3)nc12
A) 3.46 µM (inactive)

Q) Please state recorded GI50 (tested on DMS-114) of Nc1c(-c2ccc(Cl)cc2Cl)[n+]([O-])c2ccccc2[n+]1[O-]
A) > 100 µM (inactive)

Q) # get_value(readout= GI50, system= DMS-114) for Cc1c(CCCl)c(Cl)n2c(nc3ccccc32)c1C#N
A) 1.13 µM (inactive)

Q) Given the entry COc1cccc2c1C(=O)c1c(O)c3c(c(O)c1C2=O)C[C@@](O)(C(=O)CO)C[C@@H]3OC1CC(N2CCOCC2)C(O)C(C)O1 (stereo not given in full) , what GI50 was observed with DMS-114?
A) 0.0025 µM (active)

Q) API: value(readout=GI50, system=DMS-114) for record OCC(O)C(OC1OC(CO)C(O)C(O)C1O)c1nn(-c2ccccc2)c2nc3cc(Cl)ccc3nc12 (stereo not given)
A) > 100 µM (inactive)

Q) Form entry - test system: DMS-114; read-out: GI50; compound: NC1=C(C(=O)O)C(=O)C(Nc2c(O)cccc2C(=O)O)=CC1=O
A) > 100 µM (inactive)

----------
# System: SN12C
# Assay procedure: NCI tumour cell line growth inhibition, 48 h
Calls of active or inactive are those of the source. No stated cut-off is given here; in the data, active = GI50 up to about 1.1 µM and inactive = higher.
Observed property: GI50

Consider the reported GI50 for these compounds:
CC1=C(C(=O)Nc2ccccc2C)C(c2ccc(N(C)C)cc2)C(C(=O)Nc2ccccc2C)=C(C)N1 :: 83.6 µM (inactive)
COc1cc(Nc2cnc3cc(N)ccc3n2)cc(OC)c1OC :: 94.6 µM (inactive)
CC(C)CCCC(C)C1CCC2C3CC([N+](=O)[O-])=C4CC(O)CCC4(C)C3CCC12C (stereo unspecified) :: 18.2 µM (inactive)
CN1CCC23c4c5ccc(O)c4OC2C(=NN=C2CCC4(O)C6Cc7ccc(O)c8c7C4(CCN6C)C2O8)CCC3(O)C1C5 (stereo unspecified) :: > 100 µM (inactive)

Q) Need GI50 of CC(C)(C)[Si](C)(C)OCC1OC(n2cnc3c(N)ncnc32)CC1OS(C)(=O)=O (stereo unspecified) , thanks.
A) > 100 µM (inactive)

Q) // query GI50 value for entry C=C=C(C(=O)OC)[S+]([O-])c1ccc([N+](=O)[O-])cc1[N+](=O)[O-] (stereo unspecified)
A) 22.4 µM (inactive)

Q) Need GI50 of COCOCCCCCO[Si](C)(C)C(C)(C)C , thanks.
A) 17.2 µM (inactive)

Q) Name the reported GI50 value associated with the compound O=C1CC(c2cccc(Cl)c2)n2cccc21 (stereo unspecified)
A) > 100 µM (inactive)

Q) GI50 for Cc1cc([N+](=O)[O-])c(S(=O)(=O)c2ccccc2)c([N+](=O)[O-])c1 ?
A) 4.43 µM (inactive)

Q) Field request: GI50 | item: COC(=S)OC1CC(n2cnc3c(N)ncnc32)OC1CO[Si](C)(C)C(C)(C)C (stereo unspecified)
A) 20.4 µM (inactive)

----------
# Test system: SK-OV-3
# Assay procedure: NCI tumour cell line growth inhibition, 48 h
Active and inactive are the calls of the source. Rule as the data show it: active = GI50 up to about 1.1 µM and inactive = higher.
The following compounds are shown together with reported GI50 values.

Some solved entries appear below for comparison.
CCc1nc(N)nc(N)c1-c1ccc([N+](=O)[O-])c(NCc2ccccc2)c1 :: 20.4 µM (inactive)
Cc1ccc(OCC2OC(n3cnc4c(Cl)nc(Cl)nc43)CC2Oc2ccc(C)cc2)cc1 (stereo unspecified) :: 19.2 µM (inactive)
Cc1ccc(/N=N/NCCCCN)cc1 :: > 100 µM (inactive)
Cc1cc(Cl)ccc1NC(=O)CC/C(CC(=O)C(C)C)=N\NC(=O)C[n+]1ccccc1 :: > 100 µM (inactive)
N#CCCn1c(S)nnc1CCC(=O)Nc1ccc(Cl)cc1Cl :: > 100 µM (inactive)

Q) Using the record for CN1C2CCC1CC(=CCOC(c1ccc(F)cc1)c1ccc(F)cc1)C2 , report its GI50.
A) 17 µM (inactive)

Q) Fill blank: measured GI50 of the compound OCCCNc1ccnc2cc(Cl)ccc12 is ____.
A) > 100 µM (inactive)

Q) Please give the measured GI50 for this compound: O=C(O)C1CC2(C1)CC(C(=O)O)C2 (stereo unspecified)
A) > 100 µM (inactive)

Q) Need GI50, item COc1ccc2[nH]c3cc4c(=O)c5cc(OC)ccc5[nH]c4cc3c(=O)c2c1
A) > 100 µM (inactive)

Q) Reported GI50, compound S=C1OC2C3C4CC5C3C(O1)C1C5C4C21 (stereo unspecified) : ____
A) > 100 µM (inactive)

Q) Which GI50 value belongs to O=C(Nc1cnc(O)nc1O)Oc1ccccc1 ?
A) > 100 µM (inactive)

----------
# System: TK-10
# Assay procedure: NCI tumour cell line growth inhibition, 48 h
Active and inactive are the calls of the source. No stated cut-off is given here; in the data, active = GI50 up to about 1.1 µM and inactive = higher.
Observed property: GI50

Q) # get_value(readout='GI50', item= O=C1CC(c2cccc(Cl)c2)n2cccc21 (stereo not given) )
A) > 100 µM (inactive)

Q) Bench note: what GI50 did O=C(Nc1ccc(Br)cc1)C(=O)C(C(=O)c1ccccc1F)C1OC(=O)c2ccccc21 (stereo not given) show?
A) 50.5 µM (inactive)

Q) State the recorded GI50 for this entry: OC(CN1CCCCC1)c1ccc(/C=C/c2ccc(Cl)cc2)cc1 (stereo not given)
A) > 100 µM (inactive)

Q) Consider the compound shown here: CN1CCC23c4c5ccc(O)c4OC2C(=NN=C2CCC4(O)C6Cc7ccc(O)c8c7C4(CCN6C)C2O8)CCC3(O)C1C5 (stereo not given) What is its recorded GI50?
A) > 100 µM (inactive)

Q) Fill in the blank: the reported GI50 of Cc1ccc2c(c1)-c1c(C#N)c(N)nc(-c3ccccc3)c1CCS2(=O)=O is ____.
A) > 100 µM (inactive)

----------
# Tested on: OVCAR-5
# Assay procedure: NCI tumour cell line growth inhibition, 48 h
Calls of active or inactive are those of the source. Cut-off read from the data, not from the text of the source: active = GI50 up to about 1.1 µM and inactive = higher.
Parameter: GI50. Scope: all listed entries.

CCOC(=O)c1cc(I)c(-c2cc(C)no2)n1C :: 93.3 µM (inactive)
COC1(C)CCC(OS(C)(=O)=O)CO1 (stereo not given) :: > 100 µM (inactive)

Next compound, GI50 to be filled in.
Q) Sample Cc1ccc(S(=O)(=O)N(CC(=O)O)c2ccccc2)cc1 — what was its GI50?
A) > 100 µM (inactive)

----------
# Test system: NCI-H226
# Assay procedure: NCI tumour cell line growth inhibition, 48 h
The source made the active and inactive calls. Cut-off read from the data, not from the text of the source: active = GI50 up to about 1.1 µM and inactive = higher.
Give one outcome, nothing more. List: active, inactive

C=CCNC(=O)NCCCC(NC(C)=O)C(=O)NCc1ccccc1 (stereo unspecified) :: inactive

Q) Please state the recorded outcome for this compound: O=C(O)/C=C\C(=O)c1ccc(Cl)cc1
A) inactive

Q) Test call for this compound, please: COc1ccc(OC)c(NC(=O)CCC/C(CC(=O)c2ccc(O)c(OC)c2)=N\NC(=O)C[N+](C)(C)C)c1
A) inactive

Q) Answer briefly: the call reported for CC1=C(C)[C@@]2(C)O[C@@]2(C)O[C@@]2(C)O[C@@]12C in this assay.
A) inactive

Q) Hey, what did the test say about O=C(N/N=C/c1ccccc1O)c1ccccc1Nc1ccccc1C(=O)N/N=C/c1ccccc1O ?
A) active

Q) Outcome logged for COc1ccc(/C=C\c2cc(OC)c(OC)c(OC)c2)cc1OC(=O)C(N)CCC(=O)O (stereo unspecified) in this assay:
A) active

Q) Just curious, what result did CC(=O)c1c2c(c3ccccc3c1O)O[C@@H]1OCC[C@H]21 get here?
A) inactive

Q) Test call for this compound, please: NC1=C(NC(=O)Cc2ccccc2F)C(=O)c2ccccc2C1=O
A) inactive

Q) # fetch the recorded call for CCN1C(Cl)=NS(=O)(=O)c2ccccc21 here
A) inactive

Q) Recorded test call requested for [O-][S+]1CSCS1 (stereo unspecified)
A) inactive

Q) Given O=C(O)C(O)(c1ccc(-c2ccccc2)cc1)c1ccc(-c2ccccc2)cc1 , state the outcome it received in this test.
A) inactive

----------
# Tested on: RXF 631
# Assay procedure: NCI tumour cell line growth inhibition, 48 h
Calls of active or inactive are those of the source. Rule as the data show it: active = GI50 up to about 1.1 µM and inactive = higher.
Use one of these outcomes when replying: Y (active), N (inactive)

Worked examples, 6 compounds total:
CC1Oc2c(c(O)cc3oc(=O)cc(-c4ccccc4)c23)C(=O)C1C (stereo not drawn) :: N
CC(=O)OC1(C(C)=O)CC2(c3ccccc3)OC1(c1ccccc1)c1ccccc12 (stereo not drawn) :: N
CCOC(=O)c1sc2c(sc(=O)n2-c2ccccc2)c1O :: N
CN/C=C(/c1ccc(OC)cc1)C(O)c1ccc(OC)c(OC)c1 (stereo not drawn) :: N
COc1ccc(OC)c(NC(=O)CCC/C(CC(=O)c2ccc(O)c(OC)c2)=N\NC(=O)C[N+](C)(C)C)c1 :: N
O=C(c1nc2ccc(Cl)cc2[nH]c1=O)C(O)c1ccco1 (stereo not drawn) :: N

Q) Please indicate how the test categorized C=C=C(C(=O)OC)[S+]([O-])c1ccc([N+](=O)[O-])cc1[N+](=O)[O-] (stereo not drawn) .
A) N

Q) Status in this test for COc1cc(C2c3cc4c(cc3[C@H](OCCN(C)C)[C@@H]3COC(=O)C23)OCO4)cc(OC)c1O (stereo partly drawn) ?
A) Y
